System: RNAi-treated eri-1 (mg366) nematodes
Assay: RNAi screening of olfactory receptor genes: chemotaxis assay of RNAi-treated nematodes to odorants
Assay type: in vivo, Caenorhabditis elegans
Settings: srh-27 RNAi-treated nematodes; low concentration of attractant
For each record, write down the corresponding chemotaxis index.

A selection of reference data follows.
{"compound": "CCC(C)=O [butanone]", "chemotaxis index": 0.63}
{"compound": "c1cnccn1 [pyrazine]", "chemotaxis index": 0.32}
{"compound": "Cc1nc(C)c(C)s1 [trimethylthiazole]", "chemotaxis index": 0.71}

Now look at this one.
q: Assign chemotaxis index to the following record: CCC(=O)C(C)=O [pentanedione]
a: 0.27
